Source of measurements: the OPERA property sets (Mansouri et al. 2018)

log10 vapour pressure (mmHg) listing for selected molecules.
Note: the reply should be a number with no unit written.

Here is how some molecules turned out for log10 vapour pressure (mmHg).
[[record]]
molecule = "CCc1ccc(CC)cc1"
quantity = "log10 vapour pressure (mmHg)"
numeric_readout = 0.0253

[[record]]
molecule = "C1=CC2C3C=CC(C3)C2C1 (configuration not stated)"
quantity = "log10 vapour pressure (mmHg)"
numeric_readout = 0.361

[[record]]
molecule = "N#Cc1sc2c(=O)c3ccccc3c(=O)c=2sc1C#N"
quantity = "log10 vapour pressure (mmHg)"
numeric_readout = -10.7

[[record]]
molecule = "CCc1cccc(C)c1N(C(=O)CCl)C(C)COC (configuration not stated)"
quantity = "log10 vapour pressure (mmHg)"
numeric_readout = -4.5

[[record]]
molecule = "CCN(CC)CCO"
quantity = "log10 vapour pressure (mmHg)"
numeric_readout = 0.146

[[record]]
molecule = "CCNc1nc(Cl)nc(NC(C)(C)C#N)n1"
quantity = "log10 vapour pressure (mmHg)"
numeric_readout = -6.86

[[record]]
molecule = "ClC(Cl)C(Cl)Cl"
quantity = "log10 vapour pressure (mmHg)"
numeric_readout = 0.665

[[record]]
molecule = "Clc1ccc(-c2c(Cl)cc(Cl)c(Cl)c2Cl)c(Cl)c1Cl"
quantity = "log10 vapour pressure (mmHg)"
numeric_readout = -5.85

[[record]]
molecule = "COC(F)(F)C(F)(F)C(F)(F)F"
quantity = "log10 vapour pressure (mmHg)"
numeric_readout = 2.75

[[record]]
molecule = "COC(=O)C(C)C"
quantity = "log10 vapour pressure (mmHg)"
numeric_readout = 1.69


Below: the item to evaluate.
-- ask # query: log10 vapour pressure (mmHg) of entry FC(F)(F)C(F)(F)C(Cl)Cl
-- reply 2.38

###

log10 vapour pressure (mmHg) listing for selected compounds.
Note: the reply should be a number with no unit written.

[[record]]
compound = "CN1CCC[C@H]1c1cccnc1"
quantity = "log10 vapour pressure (mmHg)"
numeric_readout = -1.42

[[record]]
compound = "C=CC(N)=O"
quantity = "log10 vapour pressure (mmHg)"
numeric_readout = -2.15

[[record]]
compound = "CC(C)(C)c1ccc(O)c(C(C)(C)C)c1"
quantity = "log10 vapour pressure (mmHg)"
numeric_readout = -2.32

[[record]]
compound = "BrCC(Br)c1ccccc1 (stereo not drawn)"
quantity = "log10 vapour pressure (mmHg)"
numeric_readout = -1.97

[[record]]
compound = "CC/C=C\\C/C=C\\C/C=C\\CCCCCCCC(=O)OC"
quantity = "log10 vapour pressure (mmHg)"
numeric_readout = -5.29


-- ask # query: log10 vapour pressure (mmHg) of entry CCCCCCCCCCCCCCCCC
-- reply -3.64

-- ask # query: log10 vapour pressure (mmHg) of entry O=[N+]([O-])c1ccc(-c2ccc([N+](=O)[O-])cc2)cc1
-- reply -7.56

-- ask # query: log10 vapour pressure (mmHg) of entry O=C[C@H](O)C(O)[C@H](O)CO (stereo in doubt)
-- reply -9.71

-- ask # query: log10 vapour pressure (mmHg) of entry Cc1c(COC(=O)[C@@H]2[C@H](/C=C(\Cl)C(F)(F)F)C2(C)C)cccc1-c1ccccc1 (racemic)
-- reply -6.74

-- ask # query: log10 vapour pressure (mmHg) of entry O=Cc1ccccc1[N+](=O)[O-]
-- reply -1.75

-- ask # query: log10 vapour pressure (mmHg) of entry C=CCC#N
-- reply 1.27

-- ask # query: log10 vapour pressure (mmHg) of entry c1cc2ccc3ccc4ccc5cccc6c(c1)c2c3c4c56
-- reply -10

-- ask # query: log10 vapour pressure (mmHg) of entry CCC(Br)CBr (stereo not drawn)
-- reply 0.491

-- ask # query: log10 vapour pressure (mmHg) of entry CC(C)OC(=O)Nc1ccccc1
-- reply -3.85

-- ask # query: log10 vapour pressure (mmHg) of entry CC(O)C(C)O (racemic)
-- reply -0.677

-- ask # query: log10 vapour pressure (mmHg) of entry C1COCCO1
-- reply 1.58

-- ask # query: log10 vapour pressure (mmHg) of entry CCCC(C)CCC
-- reply 1.31

-- ask # query: log10 vapour pressure (mmHg) of entry CC(C)CC(C)C
-- reply 1.9

-- ask # query: log10 vapour pressure (mmHg) of entry CC=CCCCC
-- reply 1.68

-- ask # query: log10 vapour pressure (mmHg) of entry C1CN2CCC1CC2
-- reply 0.282

-- ask # query: log10 vapour pressure (mmHg) of entry Clc1cccc(Oc2ccccc2)c1
-- reply -2.42

-- ask # query: log10 vapour pressure (mmHg) of entry CCN(CC)c1ccc(/N=N/c2ccccc2)cc1
-- reply -7.07

###

melting point listing for selected molecules.
The reply should contain only the number, in °C.

[[record]]
molecule = "CCc1ccc2cc3ccccc3cc2c1"
u = "°C"
numeric_readout = 152


-- ask # query: melting point of entry COc1ccccc1N=Nc1c(O)ccc2ccccc12
-- reply 183

-- ask # query: melting point of entry CC(Br)C(Br)C(=O)O (stereo not drawn)
-- reply 87

-- ask # query: melting point of entry C=C(C)C(=O)OCCCCCCCCCCCC
-- reply -7

-- ask # query: melting point of entry CC(=O)N1CCN(c2ccc(OC[C@H]3CO[C@](Cn4ccnc4)(c4ccc(Cl)cc4Cl)O3)cc2)CC1
-- reply 146

-- ask # query: melting point of entry CCc1cccc(C)c1N
-- reply -33

-- ask # query: melting point of entry O=C(O)c1cc(Cl)ccc1[N+](=O)[O-]
-- reply 139

-- ask # query: melting point of entry CCc1nc(C)c[nH]1
-- reply 50.5

###

log10 vapour pressure (mmHg) listing for selected compounds.
Note: the reply should be a number with no unit written.

[[record]]
compound = "c1ccc(N2CCNCC2)cc1"
numeric_readout = -2.26

[[record]]
compound = "CCN(CC)Cc1cccnc1"
numeric_readout = -2.37

[[record]]
compound = "CC=Cc1ccc(OC)cc1"
numeric_readout = -1.15

[[record]]
compound = "FC(F)(Cl)Br"
numeric_readout = 3.31

[[record]]
compound = "SC1CCCC1"
numeric_readout = 1.06


-- ask # query: log10 vapour pressure (mmHg) of entry CC[N+](=O)[O-]
-- reply 1.32

-- ask # query: log10 vapour pressure (mmHg) of entry CCCCCCOC(=O)CCCCC(=O)OCCCCCC
-- reply -5.54

-- ask # query: log10 vapour pressure (mmHg) of entry C1CCCCCCC1
-- reply 0.741

-- ask # query: log10 vapour pressure (mmHg) of entry O=C1C2CC=CCC2C(=O)N1SC(Cl)(Cl)Cl (stereo unspecified)
-- reply -7.05

-- ask # query: log10 vapour pressure (mmHg) of entry [C-]#[N+]c1ccccc1
-- reply 0.381

-- ask # query: log10 vapour pressure (mmHg) of entry CCCC(Br)CBr (stereo unspecified)
-- reply 0.153

-- ask # query: log10 vapour pressure (mmHg) of entry CCOP(=S)(OCC)Oc1nc(Cl)n(C(C)C)n1
-- reply -4.06

-- ask # query: log10 vapour pressure (mmHg) of entry Fc1ccc(Oc2ccnc3cc(Cl)cc(Cl)c23)cc1
-- reply -6.82

###

Quantity: boiling point (°C)
The reply should contain only the number, in °C.

Here is how some molecules turned out for boiling point.
[[record]]
molecule = "Nc1ccccc1F"
quantity = "boiling point"
u = "°C"
numeric_readout = 175

[[record]]
molecule = "Brc1ccc(Oc2ccc(Br)cc2)cc1"
quantity = "boiling point"
u = "°C"
numeric_readout = 339

[[record]]
molecule = "CCOC(=O)C(C#N)(CC)CC"
quantity = "boiling point"
u = "°C"
numeric_readout = 214

[[record]]
molecule = "CC(C)CCCN"
quantity = "boiling point"
u = "°C"
numeric_readout = 125

[[record]]
molecule = "C=CC[Si](C)(C)Cl"
quantity = "boiling point"
u = "°C"
numeric_readout = 111

[[record]]
molecule = "CCC[Si](C)(C)C"
quantity = "boiling point"
u = "°C"
numeric_readout = 89


-- ask # query: boiling point of entry CC(=O)N(C)C(C)=O
-- reply 195

-- ask # query: boiling point of entry ClCCI
-- reply 140

###

boiling point listing for selected compounds.
The reply should contain only the number, in °C.

[[record]]
compound = "CC(=O)c1ccc(C)s1"
quantity = "boiling point"
numeric_readout = 232

[[record]]
compound = "Cc1ccc(C=O)cc1"
quantity = "boiling point"
numeric_readout = 204

[[record]]
compound = "O=C1c2ccccc2-c2ccccc21"
quantity = "boiling point"
numeric_readout = 342

[[record]]
compound = "CCCCC1CCC(=O)O1 (stereo not drawn)"
quantity = "boiling point"
numeric_readout = 234

[[record]]
compound = "CCOC(=O)C1CCCC1=O (stereo not drawn)"
quantity = "boiling point"
numeric_readout = 221

[[record]]
compound = "N#Cc1ccco1"
quantity = "boiling point"
numeric_readout = 147

[[record]]
compound = "Clc1sc(Cl)c(Cl)c1Cl"
quantity = "boiling point"
numeric_readout = 233

[[record]]
compound = "C1CCC2CCCCC2C1 (stereo not drawn)"
quantity = "boiling point"
numeric_readout = 180


-- ask # query: boiling point of entry C=CC(=O)OC
-- reply 80.2

-- ask # query: boiling point of entry CCCCCOCCCCC
-- reply 190

-- ask # query: boiling point of entry C=C(C)CCl
-- reply 71.5

-- ask # query: boiling point of entry O=[N+]([O-])OCC(CCl)O[N+](=O)[O-] (stereo not drawn)
-- reply 192

-- ask # query: boiling point of entry COP(=O)(OC)OC=C(Cl)Cl
-- reply 234
